# Measured target: catalytic domain of MMP-14 (cdMMP-14) (human, UniProt P50281 114-287, limits assumed, biotinylated (Sulfo-NHS-LC-Biotin) where immobilised via streptavidin)
# Test details: cell-based or functional assay
Outcome: yes (1) for Inhibition potency (FRET IC50) of at least 1000 nM; no (0) for anything lower.

| Binder | Category |
| --- | --- |
| Fab 33D4 (Fab, V domains shown, also called R2C15; not shown: His tag at the C-terminus of the heavy chain) VH: EVQLVESGGGLVQPGGSLRLSCAASGFNIYYSSMHWVRQAPGKGLEWVASISPYSGSTYYADSVKGRFTISADTSKNTAYLQMNSLRAEDTAVYYCARSVHMKLSNKILSGWSWNNSFYAMDYWGQGTLVTVSS VL: DIQMTQSPSSLSASVGDRVTITCRASQSVSSAVAWYQQKPGKAPKLLIYSASSLYSGVPSRFSGSRSGTDFTLTISSLQPEDFATYYCQQSSYSLITFGQGTKVEIKR | yes (1) |
| Fab R2C9 (Fab, V domains shown) VH: EVQLVESGGGLVQPGGSLRLSCAASGFNIYSYSMHWVRQAPGKGLEWVAYIYPYSGYTYYADSVKGRFTISADTSKNTAYLQMNSLRAEDTAVYYCARVLNIFMDVGAARFPGLVRYGMDYWGQGTLVTVSS VL: DIQMTQSPSSLSASVGDRVTITCRAGQDVSSAVAWYQQKPGKAPKLLIYSASTLHSGVPSRFSGSRSGTDFTLTISSLQPEDFATYYCQQSGPYSLFTFGQGTKVEIKR | no (0) |
| Fab R2C16 (Fab, V domains shown) VH: EVQLVESGGGLVQPGGSLRLSCAASGFNIYSYSMHWVRQAPGKGLEWVASISSYYGYTYYADSVKGRFTISADTSKNTAYLQMNSLRAEDTAVYYCARFKNADFAAGGQWSKMLIARMYAMDYWGQGTLVTVSS VL: DIQMTQSPSSLSASVGDRVTITCRASQSVSSAVAWYQQKPGKAPKLLIYSASSLYSGVPSRFSGSRSGTDFTLTISSLQPEDFATYYCQQYYSLITFGQGTKVEIKR | yes (1) |
| Fab R3C15 (Fab, V domains shown) VH: EVQLVESGGGLVQPGGSLRLSCAASGFNISYSYMHWVRQAPGKGLEWVASISPYSGYTYYADSVKGRFTISADTSKNTAYLQMNSLRAEDTAVYYCARGVRGNKLRLLSSRSGRMESHYVMDYWGQGTLVTVSS VL: DIQMTQSPSSLSASVGDRVTITCRASQSVSSAVAWYQQKPGKAPKLLIYSASSLYSGVPSRFSGSRSGTDFTLTISSLQPEDFATYYCQQAGSLFTFGQGTKVEIKR | no (0) |
